TARGET_OF_ASSAY: T1, SNTG1, Q9NSN8
T1 sequence (Q9NSN8 52-150, limits assumed, looked up): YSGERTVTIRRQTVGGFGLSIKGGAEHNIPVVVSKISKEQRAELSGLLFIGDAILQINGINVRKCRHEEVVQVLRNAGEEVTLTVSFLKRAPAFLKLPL
ASSAY_NAME: holdup assay
Design: key: below the threshold = too weak to quantify, mostly under pKd 3.1 to 4
CONDITION: plain residues with an end cap or a label only (N-terminal biotin on a linker: ttds)
VALUE_KIND: pKd

>>> number("ERKLSSESQV [LRP4, O75096]")
4.37
>>> number("QSARYRDTEL [TJP2, Q9UDY2]")
3.73
>>> number("GQDSREETQL [KCNT2, Q6UVM3]")
3.73
>>> number("STLTIFETAL [ABCC4, O15439]")
4.89
>>> number("VLRLQSETSV [VANGL1, Q8TAA9]")
4.67
>>> number("SSRTRRETQL [HPV16-E6, P03126]")
3.8
>>> number("RSLEEEESQL [GRASP, Q7Z6J2]")
3.86
>>> number("SVWLRKETRV [CYSLTR2, Q9NS75]")
4.43
